# Measured target: Ubiquitin-activating enzyme e1, putative (Leishmania donovani (strain BPK282A1)) (UniProt E9BSI1)
# Sequence (whole entry): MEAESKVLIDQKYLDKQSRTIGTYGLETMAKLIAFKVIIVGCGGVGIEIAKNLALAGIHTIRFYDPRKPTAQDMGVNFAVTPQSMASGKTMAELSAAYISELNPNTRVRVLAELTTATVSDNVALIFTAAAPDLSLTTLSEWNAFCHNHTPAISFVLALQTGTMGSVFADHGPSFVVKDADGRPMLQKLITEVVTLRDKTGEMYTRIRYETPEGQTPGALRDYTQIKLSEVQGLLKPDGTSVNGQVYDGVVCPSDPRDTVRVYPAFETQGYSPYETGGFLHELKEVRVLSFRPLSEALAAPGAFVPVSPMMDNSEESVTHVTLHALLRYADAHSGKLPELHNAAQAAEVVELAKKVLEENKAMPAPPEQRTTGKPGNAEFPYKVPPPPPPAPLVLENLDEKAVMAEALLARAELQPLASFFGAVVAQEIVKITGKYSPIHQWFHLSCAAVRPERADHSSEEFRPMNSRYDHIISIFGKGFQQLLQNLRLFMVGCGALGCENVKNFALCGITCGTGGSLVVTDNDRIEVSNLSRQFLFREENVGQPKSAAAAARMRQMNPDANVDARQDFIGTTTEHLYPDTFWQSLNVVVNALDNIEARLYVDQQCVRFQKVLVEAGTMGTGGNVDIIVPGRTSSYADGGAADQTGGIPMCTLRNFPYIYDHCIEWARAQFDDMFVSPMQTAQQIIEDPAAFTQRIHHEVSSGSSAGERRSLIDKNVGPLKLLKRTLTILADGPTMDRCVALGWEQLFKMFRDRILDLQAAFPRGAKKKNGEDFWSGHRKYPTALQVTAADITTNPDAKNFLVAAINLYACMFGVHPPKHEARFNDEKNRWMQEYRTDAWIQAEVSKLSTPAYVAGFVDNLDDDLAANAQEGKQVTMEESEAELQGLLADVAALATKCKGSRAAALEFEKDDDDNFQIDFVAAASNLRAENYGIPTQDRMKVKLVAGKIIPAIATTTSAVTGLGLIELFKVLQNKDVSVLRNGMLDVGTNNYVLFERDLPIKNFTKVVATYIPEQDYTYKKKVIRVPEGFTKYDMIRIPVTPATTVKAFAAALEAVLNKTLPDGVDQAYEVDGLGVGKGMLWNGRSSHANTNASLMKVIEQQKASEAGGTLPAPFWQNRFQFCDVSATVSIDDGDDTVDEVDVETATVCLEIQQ
# Protocol description: Leishmania donovani Ubiquitin Activating Enzyme (LdE1)
# Type: functional
# Set-up: scale not given: direction of the effect not stated beside the values
# Run conditions: 30 µM
Potency and affinity values are given separately.
Below: a set of entries, each annotated with reported Percent Effect.
Give just the numeric value; % need not be written.

Complete the entry with Percent Effect for CCc1nc(C2CCCN2CCc2ccccn2)no1 (configuration not stated)
20.5

Complete the entry with Percent Effect for `CCOc1ccc(CN2CCN(C(=O)c3ccc(C)n3C)CC2)cc1`
5.33

Complete the entry with Percent Effect for Cc1cnn(C2CCCN(C(=O)c3cc(C4CC4)on3)C2)c1 (configuration not stated)
10.3

Complete the entry with Percent Effect for CC(NC1(CNC(=O)C(C)(C)C#N)CCOCC1)c1ccccc1 (configuration not stated)
0
